- Experimental details: solvent given as SMILES
- Run conditions: in Cc1ccccc1
Measured property: absorption maximum

Record excerpt, results attached:
{"Structure": "Cn1c(=O)c(/N=N/c2ccc(Nc3ccccc3)c(S(=O)(=O)O)c2)c(O)c2ccccc21", "Result": "414 nm"}
{"Structure": "CC1=NN(c2ccccc2)C(=O)/C1=C/c1cn(-c2ccccc2)nc1-c1ccccc1", "Result": "369 nm"}
{"Structure": "C[Si](C)(C)C#Cc1cc2ccc3cc(C#C[Si](C)(C)C)cc4ccc(c1)c2c34", "Result": "407 nm"}
{"Structure": "CCCCCCCCN1c2ccc(C#Cc3cc(C(F)(F)F)cc(C(F)(F)F)c3)cc2Sc2cc(C=O)ccc21", "Result": "381.01 nm"}
{"Structure": "Cc1ccc(N(c2ccc(C)cc2)c2ccc(-c3ccc4c(c3)C(=O)c3ccccc3C4=O)cc2)cc1", "Result": "470 nm"}

With those in mind, consider the next molecule.
Looking up CCCCCCOc1cc2[nH]c(cc2CCOC)c2nc(ccc3[nH]c(cc3CCOC)c3nc1C(CCOC)=C3)C(CCOC)=C2 , I found its absorption maximum recorded as 684 nm
